Record set of IC50 for target or system RAC-alpha serine/threonine-protein kinase (Homo sapiens).
attributeMeasured: IC50 (nM)

compound	val
NCCCC(NC(=O)c1cc(Br)c(-c2ccnc3[nH]ccc23)s1)c1ccccc1 (stereo not drawn)	20
CC(C)NCC(Cc1ccccc1)NC(=O)c1cc(Br)c(-c2ccnc3[nH]ccc23)s1 (stereo not drawn)	10
NCC(Cc1ccccc1)NC(=O)c1cc(Br)c(-c2ccnc3[nH]ccc23)s1 (racemic)	1

----------
pIC50: −log10 of the molar value.
Here's a batch of compounds along with measured pIC50 for RAC-gamma serine/threonine-protein kinase (Homo sapiens).

compound	pIC50
NC[C@H](Cc1ccccc1F)NC(=O)c1cc(Br)c(-c2ccnc3[nH]ccc23)s1	8.70
NC[C@H](Cc1ccc(F)cc1)NC(=O)c1cc(Br)c(-c2ccnc3[nH]ccc23)s1	8.70
NCC(Cc1ccccc1)NC(=O)c1cc(Br)c(-c2ccnc3[nH]ccc23)s1 (racemic)	8.52
NC[C@H](CC1CCCCC1)NC(=O)c1cc(Br)c(-c2ccnc3[nH]ccc23)s1	8.52
COc1ccc(C[C@@H](CN)NC(=O)c2cc(Br)c(-c3ccnc4[nH]ccc34)s2)cc1	8.70
